Test: Blood-brain distribution determination in SD rats
Format: in vivo
Details: rat, plasma; female SD rats, oral, 5 mg/kg; read-out: Plasma area under the curve AUC0-t
RECORDED_METRIC: AUC(0-t) (ng·h/mL)

COMPOUND	OBSERVED_RESULT
CO/N=C1/C[C@@H]([C@@H](C)O)N(C(=O)c2ccc(-c3cccc(C#N)c3C)cc2)C1 (single isomer, unassigned)	1570

a. CO/N=C1/C[C@@H](CO)N(C(=O)c2ccc(-c3cccc(C#N)c3Cl)cc2)C1
b. CON=C1CC(CO)N(C(=O)c2ccc(-c3cccc(C#N)c3C)c3c2OCO3)C1 (single isomer, unassigned)
Lower AUC(0-t): a or b ? Mark your answer with the label of the selected entry.
b
(b: 1460 ng·h/mL, a: 6670 ng·h/mL)

a. CO/N=C1/C[C@@H](CO)N(C(=O)c2ccc(-c3cc(F)cc(C#N)c3C)c3c2OCCO3)C1
b. CO/N=C1/C[C@@H](CO)N(C(=O)c2ccc(-c3cccc(C#N)c3C)cc2)C1
Sort a and b by AUC(0-t) descending and give the first. Mark your answer with the label of the selected entry.
b

###

Experiment: Pharmacokinetic determination in SD rats
Format: in vivo
Settings: rat, plasma, 2 mg/kg; female SD rats, IV (2 mpk); read-out: Clearance Cl
RECORDED_METRIC: clearance (mL/min/kg)

MOLECULE	OBSERVED_RESULT
CO/N=C1/C[C@@H](CO)N(C(=O)c2ccc(-c3cccc(C#N)c3C)cc2)C1	7.4

a. CO/N=C1/C[C@@H](CO)N(C(=O)c2ccc(-c3cccc(C#N)c3Cl)cc2)C1
b. CO/N=C1/C[C@@H](CO)N(C(=O)c2ccc(-c3ccccc3C)cc2)C1 [Nolasiban, reference compound]
Lower clearance: a or b ? Mark your answer with the label of the selected entry.
a
(a: 4.66 mL/min/kg, b: 11.1 mL/min/kg)

###

Experiment: Blood-brain distribution determination in SD rats
Type: in vivo
Conditions: rat, brain/plasma; female SD rats, oral, 5 mg/kg; read-out: Brain/plasma exposure ratio
RECORDED_METRIC: Kp

Observe how each entry below is paired with its result.
COMPOUND	OBSERVED_RESULT
CO/N=C1/C[C@@H]([C@@H](C)O)N(C(=O)c2ccc(-c3cccc(C#N)c3C)cc2)C1 (single isomer, unassigned)	0.52
CO/N=C1/C[C@@H](CO)N(C(=O)c2ccc(-c3cc(F)cc(C#N)c3C)c3c2OCCO3)C1	0.08
CO/N=C1/C[C@@H](CO)N(C(=O)c2ccc(-c3cccc(C#N)c3C)cc2)C1	0.32

P. CO/N=C1/C[C@@H](CO)N(C(=O)c2ccc(-c3cccc(C#N)c3Cl)cc2)C1
Q. CON=C1CC(CO)N(C(=O)c2ccc(-c3cccc(C#N)c3C)c3c2OCO3)C1 (single isomer, unassigned)
Lower Kp: P or Q ? Mark your answer with the label of the selected entry.
Q
(Q: 0.1, P: 0.39)

###

Molecular target: V1aR (Homo sapiens)
Sequence (P37288 whole entry, species assumed): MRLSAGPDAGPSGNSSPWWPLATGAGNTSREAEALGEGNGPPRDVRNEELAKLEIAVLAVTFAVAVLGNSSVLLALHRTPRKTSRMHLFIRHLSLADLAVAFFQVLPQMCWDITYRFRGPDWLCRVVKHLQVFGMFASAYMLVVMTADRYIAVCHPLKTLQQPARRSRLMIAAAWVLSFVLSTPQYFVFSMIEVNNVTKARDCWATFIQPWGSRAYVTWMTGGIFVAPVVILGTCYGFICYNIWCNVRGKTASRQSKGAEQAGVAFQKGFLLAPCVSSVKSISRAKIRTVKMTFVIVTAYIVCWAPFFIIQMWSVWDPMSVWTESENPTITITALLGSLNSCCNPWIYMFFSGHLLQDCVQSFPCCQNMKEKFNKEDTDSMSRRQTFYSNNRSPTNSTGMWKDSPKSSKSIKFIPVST
Test: Ca2+ mobilization in cells stably expressing V1aR (FLIPR, antagonist mode)
Details: V1a-CHO stably transfected cell line
RECORDED_METRIC: IC50 (µM)

Observe how each entry below is paired with its result.
COMPOUND	RECORDED_METRIC	OBSERVED_RESULT
CO/N=C1/C[C@@H]([C@H](C)O)N(C(=O)c2ccc(-c3cccc(C#N)c3C)cc2)C1 (single isomer, unassigned)	IC50	2.35
CO/N=C1/C[C@@H](CO)N(C(=O)c2ccc(-c3cccc(C#N)c3C)cc2C)C1	IC50	6.13
CO/N=C1\C[C@@H](CO)N(C(=O)c2ccc(-c3cccc(C#N)c3C)c3c2OCCO3)C1	IC50	8.37
CO/N=C1/C[C@@H](CO)N(C(=O)c2ccc(-c3cccc(C(F)(F)F)c3C)cc2)C1	IC50	3.21
CO/N=C1/C[C@@H](CO)N(C(=O)c2cc(F)c(-c3cccc(C#N)c3C)c3c2OCCO3)C1	IC50	0.529

A. CO/N=C1/C[C@@H](CO)N(C(=O)c2ccc(-c3cccc(C)c3C)cc2OC)C1
B. CO/N=C1/C[C@@H](CO)N(C(=O)c2ccc(-c3cccc(C#N)c3C)c(C#N)c2)C1
Sort A and B by IC50 descending and give the first. Mark your answer with the label of the selected entry.
B

###

Target: UniProt P30559
Assay: Ca2+ mobilization in cells stably expressing OTR (FLIPR, antagonist mode)
Details: OTR/HEK293 stably transfected cell line
RECORDED_METRIC: IC50 (µM)

Observe how each entry below is paired with its result.
MOLECULE	VALUE_UNIT	OBSERVED_RESULT
CO/N=C1/C[C@@H]([C@H](C)O)N(C(=O)c2ccc(-c3cccc(C#N)c3C)cc2)C1 (single isomer, unassigned)	µM	0.0126
CO/N=C1/C[C@@H](CO)N(C(=O)c2ccc(-c3c(F)ccc(C#N)c3C)c3c2OCCO3)C1	µM	0.00707
CO/N=C1/C[C@@H](CO)N(C(=O)c2ccc(-c3cccc(C#N)c3C)c3c2OCCN3C)C1	µM	0.0315
CO/N=C1/C[C@@H](CO)N(C(=O)c2ccc(-c3cccc(C(F)F)c3C)c3c2OCCO3)C1	µM	0.00743

P. CNC(=O)[C@@H]1C/C(=N\OC)CN1C(=O)c1ccc(-c2cccc(C#N)c2C)cc1
Q. CO/N=C1\CN(C(=O)c2ccc(-c3ccccc3C)cc2)[C@](C)(CO)C1
R. CO/N=C1/C[C@@H](CO)N(C(=O)c2ccc(-c3cccc(C#N)c3Cl)c3c2OCCO3)C1
S. CO/N=C1/C[C@@H](CO)N(C(=O)c2ccc(-c3cccc(C)c3C#N)cc2)C1
Put the entries in order of IC50, starting with the largest number. List labels; respect the requested ordering.
S, P, Q, R
(S: 0.647 µM, P: 0.394 µM, Q: 0.074 µM, R: 0.00532 µM)

a. CO/N=C1/C[C@@H](CO)N(C(=O)c2ccc(-c3cccc(C#N)c3Cl)cc2)C1
b. CO/N=C1\C[C@@H](CO)N(C(=O)c2ccc(-c3cccc(C#N)c3C)c(OC)c2)C1
Sort a and b by IC50 descending and give the first. Mark your answer with the label of the selected entry.
b
(b: 0.0578 µM, a: 0.0208 µM)

a. CO/N=C1/C[C@@H](CO)N(C(=O)c2ccc(-c3cc(C#N)ccc3C)cc2)C1
b. CO/N=C1/C[C@@H](CO)N(C(=O)c2ccc(-c3c(F)ccc(C#N)c3C)c3c2OCO3)C1
Lower IC50: a or b ? Mark your answer with the label of the selected entry.
b
(b: 0.0405 µM, a: 1.26 µM)

###

Biological target: OTR (Homo sapiens)
Test: Ca2+ mobilization in cells stably expressing OTR (FLIPR, antagonist mode)
Conditions: OTR/HEK293 stably transfected cell line
RECORDED_METRIC: IC50 (nM)

Observe how each entry below is paired with its result.
COMPOUND	IC50, nM
CO/N=C1/C[C@@H](CO)N(C(=O)c2ccc(-c3cccc(C)c3C)c3c2OCO3)C1	10.6
CO/N=C1/C[C@@H](CO)N(C(=O)c2ccc(-c3cccc(C)c3C)c(=O)n2C)C1	1480
CO/N=C1\C[C@@H](CO)N(C(=O)c2ccc(-c3cccc(C#N)c3C)cc2)C1	82.9

A. CO/N=C1/C[C@@H](CO)N(C(=O)c2cc(F)c(-c3cccc(C#N)c3C)c3c2OCO3)C1
B. CON=C1C[C@@H](CNC(C)=O)N(C(=O)c2ccc(-c3ccccc3C)cc2)C1 (single isomer, unassigned)
C. CO/N=C1\C[C@@H](CO)N(C(=O)c2ccc(-c3cccc(C#N)c3C)c(OC)n2)C1
D. CO/N=C1/C[C@@H](CO)N(C(=O)c2ccc(-c3cccc(C)c3C)c(C(F)(F)F)n2)C1
Put the entries in order of IC50, starting with the largest number. List labels; respect the requested ordering.
B, D, C, A
(B: 1740 nM, D: 161 nM, C: 112 nM, A: 8.35 nM)

###

Test: Pharmacokinetic determination in SD rats
Type: in vivo
Conditions: rat, plasma, 2 mg/kg; female SD rats, IV (2 mpk); read-out: Half-life T1/2 (converted)
RECORDED_METRIC: half-life (h)

COMPOUND	half-life / h
CO/N=C1/C[C@@H](CO)N(C(=O)c2ccc(-c3cccc(C#N)c3C)cc2)C1	3

I. CO/N=C1/C[C@@H](CO)N(C(=O)c2ccc(-c3cccc(C#N)c3Cl)cc2)C1
II. CO/N=C1/C[C@@H](CO)N(C(=O)c2ccc(-c3ccccc3C)cc2)C1 [Nolasiban, reference compound]
Lower half-life: I or II ? Mark your answer with the label of the selected entry.
II
(II: 2.8 h, I: 5.23 h)

###

Target: OTR (Homo sapiens, UniProt P30559)
Sequence (P30559 whole entry, species assumed): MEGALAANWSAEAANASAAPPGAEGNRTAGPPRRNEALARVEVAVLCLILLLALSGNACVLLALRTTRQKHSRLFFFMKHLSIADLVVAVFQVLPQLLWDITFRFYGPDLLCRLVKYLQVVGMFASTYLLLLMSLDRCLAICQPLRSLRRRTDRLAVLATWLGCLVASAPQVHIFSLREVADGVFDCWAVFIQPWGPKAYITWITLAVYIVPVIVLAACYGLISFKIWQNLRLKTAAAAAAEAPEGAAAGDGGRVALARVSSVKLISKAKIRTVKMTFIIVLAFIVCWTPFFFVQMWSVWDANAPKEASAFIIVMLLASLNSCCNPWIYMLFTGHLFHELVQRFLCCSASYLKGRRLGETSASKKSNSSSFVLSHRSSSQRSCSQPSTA
Assay: Ca2+ mobilization in cells stably expressing OTR (FLIPR, antagonist mode)
Settings: OTR/HEK293 stably transfected cell line
Method: Test Example 1. Determination of the Effect of the Compound of the Present Disclosure on Ca^2+ Mobilization in Cells Stably Expressing OTR […] For the agonist reference compound plate: the FLIPR instrument software was run, 10 μL of the pre-determined concentration of agonist reference compound was added to the cell plate following the preset protocol, and the fluorescence signal was read. […]
pIC50: −log10 of the molar value.
RECORDED_METRIC: pIC50

Observe how each entry below is paired with its result.
COMPOUND	pIC50
CO/N=C1/C[C@@H](CO)N(C(=O)c2ccc(-c3cccc(C#N)c3C)c(Cl)c2)C1	7.62
CO/N=C1/C[C@@H](CO)N(C(=O)c2ccc(-c3ccnc(C#N)c3C)cc2)C1	6.55
CO/N=C1/C[C@@H](CO)N(C(=O)c2ccc(-c3cccc(C#N)c3C)c(C#N)c2)C1	7.44
CO/N=C1/C[C@@H](CO)N(C(=O)c2ccc(-c3ccc(F)c(C#N)c3C)c3c2OCO3)C1	7.79
CO/N=C1/CN(C(=O)c2ccc(-c3ccccc3C)cc2)C2(COC2)C1	6.09

a. CO/N=C1\C[C@@H](CNC(=O)CO)N(C(=O)c2ccc(-c3ccccc3C)cc2)C1
b. CON=C1CC(C(=O)NCC(O)c2ccccc2)N(C(=O)c2ccc(-c3cccc(C#N)c3C)cc2)C1 (single isomer, unassigned) [Example A0233]
c. COCCNc1nc(C(=O)N2C/C(=N\OC)C[C@H]2CO)ccc1-c1cccc(C#N)c1C
Reorder the items by pIC50, least to greatest. List labels; respect the requested ordering.
a, c, b
